Reference for the values: paper PMC11523249

Target of assay: recombinant E. histolytica thioredoxin reductase (EhTRXR) (Entamoeba histolytica, UniProt C4LW95)
Construct: His-tag (pET28a) (N); made in house; host or cells: E. coli BL21 (DE3)
Sequence (C4LW95 1-314): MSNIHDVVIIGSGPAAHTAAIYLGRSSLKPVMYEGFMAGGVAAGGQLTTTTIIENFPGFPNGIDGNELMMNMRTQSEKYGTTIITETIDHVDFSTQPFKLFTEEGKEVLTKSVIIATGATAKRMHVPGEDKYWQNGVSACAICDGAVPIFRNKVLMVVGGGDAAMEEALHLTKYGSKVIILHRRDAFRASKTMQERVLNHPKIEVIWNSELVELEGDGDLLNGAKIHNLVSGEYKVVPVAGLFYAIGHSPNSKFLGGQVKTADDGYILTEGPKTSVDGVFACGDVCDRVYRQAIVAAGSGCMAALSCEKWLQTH
Experimental protocol: Inhibition of EhTrxR DTNB reductase activity
Format: biochemical
Condition description: pH 7, read-out: EhTrxR inhibitory effect (disulphide reductase activity)

[
  {
    "Query smiles": "CCCCOC(=O)c1ccc2c(c1)[n+]([O-])c(C(=O)c1ccccc1)c(C(F)(F)F)[n+]2[O-]",
    "inhibition at 100 µM": "50 to 75%"
  },
  {
    "Query smiles": "Cc1c(C(=O)Nc2ccc(Cl)cc2)[n+]([O-])c2cc(C(=O)OCC(C)C)ccc2[n+]1[O-]",
    "inhibition at 100 µM": "> 75%"
  },
  {
    "Query smiles": "CCCCOC(=O)c1ccc2c(c1)[n+]([O-])c(C(C)=O)c(C(F)(F)F)[n+]2[O-]",
    "inhibition at 100 µM": "> 75%"
  },
  {
    "Query smiles": "CCCCOC(=O)c1ccc2c(c1)[n+]([O-])c(C(=O)OC(C)(C)C)c(C)[n+]2[O-]",
    "inhibition at 100 µM": "50 to 75%"
  },
  {
    "Query smiles": "Cc1c(C(=O)c2ccccc2)[n+]([O-])c2cc(C(=O)OCC(C)C)ccc2[n+]1[O-]",
    "inhibition at 100 µM": "50 to 75%"
  },
  {
    "Query smiles": "CCCCOC(=O)c1ccc2c(c1)[n+]([O-])c(C(=O)Nc1ccc(Cl)cc1)c(C)[n+]2[O-]",
    "inhibition at 100 µM": "50 to 75%"
  },
  {
    "Query smiles": "CCCCOC(=O)c1ccc2c(c1)[n+]([O-])c(C(=O)OCC)c(C(F)(F)F)[n+]2[O-]",
    "inhibition at 100 µM": "50 to 75%"
  },
  {
    "Query smiles": "CCCCOC(=O)c1ccc2c(c1)[n+]([O-])c(C(=O)c1ccccc1)c(C)[n+]2[O-]",
    "inhibition at 100 µM": "50 to 75%"
  }
]
